assay: qHTS of TDP-43 Inhibitors; settings: TDP-43 expressing yeast growth rescue, BacTiter-Glo, 24 h; series mostly up to 46.1 µM; further: nearly all actives have a fitted effect of over 50% in size
About 7,200 (1.8%) of roughly 410,000 compounds were called active. About 7% were inconclusive and are not listed. The call rests on the fitted dose curve; in most records, active means well fitted activation curve with a large enough effect; inconclusive means small, poorly fitted or top-dose-only effect, or another doubt; inactive means no such curve, though single readings can be large or run the other way. This is one part of a sample in which actives are shown more often than they occur.
Could you please pick one outcome from this set? Yes for active, No for inactive

Study these solved cases before continuing.
COc1ccc(C2c3c(oc4ccccc4c3=O)C(=O)N2Cc2ccc3c(c2)OCO3)cc1 (stereo not drawn) ... No
O=C1OC(C(=O)Nc2cccc(Br)c2)Cc2ccccc21 (stereo not drawn) ... No
CC1CC(=S)Nc2ccccc2N1Cc1ccccc1 (stereo not drawn) ... Yes

# input Hey, what did the test say about COc1ccc(C2CC(=O)C=C(NCC3CCCO3)C2)cc1 (stereo not drawn) ?
# output No

# input Hey, what did the test say about COc1ccccc1-c1nnc(NC(=O)c2ccc3ncsc3c2)o1 ?
# output Yes

# input Hey, what did the test say about COc1ccc([C@H]2CC(=O)C=C(c3ccc(CO)cc3)C2)cc1 ?
# output No

# input Hey, what did the test say about C/C(Cc1ccccc1)=N\NC(=O)CNC(=O)c1ccc2c(c1)OCCO2 ?
# output No
